Biological target: UniProt P25100
Sequence (P25100 whole entry): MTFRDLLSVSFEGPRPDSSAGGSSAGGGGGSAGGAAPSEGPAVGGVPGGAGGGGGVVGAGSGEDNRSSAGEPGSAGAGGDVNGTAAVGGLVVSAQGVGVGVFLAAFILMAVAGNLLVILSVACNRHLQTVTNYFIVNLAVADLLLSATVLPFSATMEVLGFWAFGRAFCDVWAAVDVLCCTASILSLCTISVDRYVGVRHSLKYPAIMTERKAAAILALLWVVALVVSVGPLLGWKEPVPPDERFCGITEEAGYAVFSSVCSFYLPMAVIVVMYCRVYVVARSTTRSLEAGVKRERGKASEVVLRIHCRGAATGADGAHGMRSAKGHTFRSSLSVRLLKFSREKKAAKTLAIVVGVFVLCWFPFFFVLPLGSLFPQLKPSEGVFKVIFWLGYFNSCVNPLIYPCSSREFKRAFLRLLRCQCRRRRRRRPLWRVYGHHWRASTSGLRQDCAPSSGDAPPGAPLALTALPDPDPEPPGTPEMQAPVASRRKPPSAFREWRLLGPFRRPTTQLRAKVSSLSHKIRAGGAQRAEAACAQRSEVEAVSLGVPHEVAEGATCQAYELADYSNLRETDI
Experiment: Binding affinity measured in CHO cells expressing human cloned Alpha-1D adrenergic receptor expressed as pKi
metric_name: Ki (nM)

>  <compound>
COc1cc2nc3c(c(O)c2cc1OC)CCC(CNCCOc1c(OC)cccc1OC)C3 (stereo not drawn)

>  <reported_result>
389

$$$$
>  <compound>
COc1cc2nc3c(c(N)c2cc1OC)CC(CNC(=O)c1ccco1)C3 (stereo not drawn)

>  <reported_result>
200

$$$$
>  <compound>
COc1cc2nc3c(c(O)c2cc1OC)CCC(CNC(=O)c1ccco1)C3 (stereo not drawn)

>  <reported_result>
1150

$$$$
>  <compound>
COc1cc2nc3c(c(N)c2cc1OC)CCC(CNCCOc1c(OC)cccc1OC)C3 (stereo not drawn)

>  <reported_result>
200

$$$$
>  <compound>
COc1cc2nc3c(c(N)c2cc1OC)CCC(CNC(=O)c1ccc(C(F)(F)F)cc1)C3 (stereo not drawn)

>  <reported_result>
19.1

$$$$

(P) COc1cc2nc3c(c(N)c2cc1OC)CCC(CNC(=O)c1ccccc1C(F)(F)F)C3 (stereo not drawn)
(Q) COc1cc2nc3c(c(N)c2cc1OC)CCC(CNC(=O)c1ccco1)C3 (stereo not drawn)
Endpoint returns whichever of P and Q has the numerically higher Ki. Choose, then provide that item's label.
P

---

Molecular target: Alpha-1A adrenergic receptor (Rattus norvegicus) (UniProt P43140)
Sequence (whole entry): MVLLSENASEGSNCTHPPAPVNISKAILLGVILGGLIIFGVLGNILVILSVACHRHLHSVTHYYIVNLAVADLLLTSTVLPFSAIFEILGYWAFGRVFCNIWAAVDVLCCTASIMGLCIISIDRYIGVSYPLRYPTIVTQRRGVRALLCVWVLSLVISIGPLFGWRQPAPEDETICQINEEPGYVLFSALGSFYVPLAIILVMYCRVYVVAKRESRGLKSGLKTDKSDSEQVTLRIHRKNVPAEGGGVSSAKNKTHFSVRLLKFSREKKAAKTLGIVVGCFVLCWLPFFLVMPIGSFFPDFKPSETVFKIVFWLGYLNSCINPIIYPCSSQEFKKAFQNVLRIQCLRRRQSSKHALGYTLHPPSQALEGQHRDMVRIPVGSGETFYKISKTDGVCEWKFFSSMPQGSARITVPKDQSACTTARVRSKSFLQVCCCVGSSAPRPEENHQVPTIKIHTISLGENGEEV
Details: Vas deferens
Description: Binding affinity for Alpha-1A adrenergic receptor of isolated rat vas deferens as pKB
metric_name: pKB

>  <compound>
COc1cc2nc3c(c(O)c2cc1OC)CCC(CNC(=O)c1ccco1)C3 (centres undefined)

>  <reported_result>
5.76

$$$$
>  <compound>
COc1cc2nc3c(c(N)c2cc1OC)CCC(CNC(=O)c1ccco1)C3 (centres undefined)

>  <reported_result>
6.52

$$$$
>  <compound>
COc1cc2nc3c(c(N)c2cc1OC)CCC(CNC(=O)c1ccccc1)C3 (centres undefined)

>  <reported_result>
6.67

$$$$
>  <compound>
COc1cc2nc3c(c(O)c2cc1OC)CCC(CNCCOc1c(OC)cccc1OC)C3 (centres undefined)

>  <reported_result>
6.24

$$$$

Every entry's value here was drawn from ChEMBL document CHEMBL1145888.
